Measured transcriptional activation domain activity by item
Test system: Saccharomyces cerevisiae
experiment: transcriptional activation domain activity (GFP:mCherry ratio, weighted mean of sorted bins, harmonized to initial dataset scale) (arbitrary fluorescence ratio units); higher = stronger transcriptional activation
condition summary: beta-estradiol 1 µM; induction time 4 h
measurement kind: transcriptional activation domain activity

{"seq string": "MKHETLFFLFCRSLTRFFPMFGASFFFVLFLDLFVFVFCVVYGYSRFIFFLFV", "measurement": 50300}
{"seq string": "VCKLLRLETLRWIFREFHWKLHLRKRFLPYHLLTYMRTLRITANNSIKHLSFN", "measurement": 41000}
{"seq string": "KQPEPRTRSASPKRAASPAKPVAAEKPAAVAAAAEKPAEKVAEKAAEKPAPAV", "measurement": 31400}
{"seq string": "IKKGAASPSKKGGRGSAKAKKEESDDEDVKPAKKAKGAAAAKGKPKGKALKKE", "measurement": 24200}
{"seq string": "MGFKTSMGWICLSQVSFFDCNLLYCVVFFIFSSKSLATSPFLSLVLLFSLYPL", "measurement": 29200}
{"seq string": "NSSEEEDRNRRERKRKREKEREKKKESRRHRSRSRRSKEVEDDDEKDRKRHRR", "measurement": 14500}
{"seq string": "MSDWEEKWSKSRNRPYYFNKTTNESVWDKPDGFDGPAAKPPGSEGKVRASHLL", "measurement": 38300}
{"seq string": "SDKLHRLRWRLGSLEDVLTTFSYLKFEQYLIPIVYLLLRRHTNIIFLAAHWVL", "measurement": 64000}
{"seq string": "TLQRIVLDFFTAPCFSDVIVADILTSFARVFGDLSTVFFTLVWGSCPHWIPPF", "measurement": 61200}

---

Test system: Saccharomyces cerevisiae
experiment: transcriptional activation domain activity (GFP:mCherry ratio, weighted mean of sorted bins, harmonized to initial dataset scale) (arbitrary fluorescence ratio units); higher = stronger transcriptional activation
condition summary: beta-estradiol 1 µM; induction time 4 h
measurement kind: transcriptional activation domain activity

{"seq string": "TKIGTGMGEQMLSREYYYIGTQLPLDRFLTFYYAHPGFHVNNIFIMLSVQLFM", "measurement": 51100}
{"seq string": "MSLWISILHTTFLVGYHSIILSLSSPYHYCYLSFLFPIYPFLLGLFVFSLLSS", "measurement": 56600}
{"seq string": "PHLFVNQGKLESYAGVVTRVVDLVLGIYVIDDCHMLILTYWPLLSPLTVLRTG", "measurement": 51000}
{"seq string": "MVKLLLTRLPYFCVLVYCVFRYPIATFCLDIFLFFKQLCQNAHAIQWPQISWL", "measurement": 77200}
{"seq string": "PQHCLDLNFMMALLHTGYGMPLEREVKIAKKIKGNELGWCLGASLPLLSKESG", "measurement": 84000}
{"seq string": "MESAKKAVESVAEGIKKVAISGDQKPAAGGKKEGGKKEKKAAKAGAEVSSGPL", "measurement": 34300}
{"seq string": "SASASASGATASASASAAAGAGGKGGFGGKGGFGGGFGGKGQGGKGGKGGAAA", "measurement": 34000}
{"seq string": "MTSPPPPSITVSHLALVPFFRTPVSAYSLLFLLFFRLGLCLSCWLFLLFSFLF", "measurement": 65800}
{"seq string": "PAPAAAAASSSTATEKASGEQQPRESKRNPRHRNKRGRDNKDKDGKEGAGGKS", "measurement": 28100}

Where do the numbers come from? From the supplement of paper PMC12636428.
